# Target or test system: CD137 on Jurkat reporter cells (Promega kit CS196005) (UniProt Q07011)
# Sequence (Q07011 24-255 limits assumed): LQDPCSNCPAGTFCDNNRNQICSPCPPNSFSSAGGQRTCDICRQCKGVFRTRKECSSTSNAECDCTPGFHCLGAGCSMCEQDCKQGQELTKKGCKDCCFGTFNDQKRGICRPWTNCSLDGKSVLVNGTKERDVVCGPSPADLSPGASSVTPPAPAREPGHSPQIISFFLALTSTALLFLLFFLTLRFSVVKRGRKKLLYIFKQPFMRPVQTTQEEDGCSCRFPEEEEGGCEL
# Experiment notes: cell-based or functional assay
Starred links: 1 amine or outer side, 2 acyl side, 3 side chain; linkers in the order of their positions; H or OH if unused. Positions of bridges follow the written chain, without caps; N, C: chain ends. Non-standard residues stand in square brackets, D forms with d. Chains are numbered I, II in the order given. No end group written: not given here. *: point of attachment. TATA = O=C(CC[*:1])N1CN(C(=O)CC[*:2])CN(C(=O)CC[*:3])C1; Hyp = O=C(O)[C@@H]1C[C@@H](O)CN1; hArg = N=C(N)NCCCC[C@H](N)C(=O)O; tBuAla = CC(C)(C)C[C@H](N)C(=O)O; dK(PYA) = not defined here; Nle = CCCC[C@H](N)C(=O)O; Pent4ynoyl = C#CCCC(=O)*
Observable: Fold Improvement over Emax (BCY9173), PC3 (fold)
Dear colleague, please return just the value in fold, with no unit written.

Please review the entries below; each comes with its answer.
{"Binder": "BCY14051 (BCY8928: Ac-(SEQ ID NO: 11)-A; TATA; linker at dLys(PYA)4; BCY13919: A[HArg]D-(SEQ ID NO: 158); TATA; linker at N-terminus) peptide 1: AXDCXLVNPLCLXPDWXC peptide 2: CXPEXPYCFADPYXCA", "Value reported": 1.88}
{"Binder": "BCY14052 (BCY8928: Ac-(SEQ ID NO: 11)-A; TATA; linker at dLys(PYA)4; BCY13920: A[HArg]D-(SEQ ID NO: 159); TATA; linker at N-terminus) peptide 1: AXDCXLVNPLCLFPDWXC peptide 2: CXPEXPYCFADPYXCA", "Value reported": 1.89}
{"Binder": "BCY12725 (linker I:4-I:11-I:18, II:1-II:8-II:15 via TATA; not fully specified (bridges); reading uncertain; also: two CD137 bicycles per complex (EphA2:CD137 1:2)) peptide 1: A[hArg]DC[Hyp]LVNPLCLHP[dD]W[hArg]C peptide 2: Ac-C[tBuAla]PE[dK(PYA)]PYCFANPY[Nle]C", "Value reported": 0.7}

Read the next record carefully.
input: For the binder BCY13279 (linker I:1-I:8-I:15, II:1-II:8-II:15 via TATA (inferred); also: linker N-(acid-PEG3)-N-bis(PEG3-azide) on C-terminal dK of chain 1, joins two chain 2 copies via PYA triazoles) peptide 1: Ac-C[Hyp]LVNPLCLHP[dD]W[hArg]CL[dH]G[dK] peptide 2: Ac-C[tBuAla]PE[dK](Pent4ynoyl)PYCFADPY[Nle]CA , what Fold Improvement over Emax (BCY9173), PC3 is on record?
output: 2.08
